From: PubChem BioAssay

assay: HepG2 cell viability effects, profiling panel, calcein-AM fluorescence, 48 h, basal (AID 1164); conditions: higher = more signal; also: test concentration not given here
measured-endpoint: z-score
Just the number, please.

# example entries with known answers
INSERT INTO assay_data (molecule, measured_endpoint, observed_measurement) VALUES
  ('C[C@H]1C2[C@H](Cc3ccccc3)NC(=O)[C@]23C(=O)N[C@@H](Cc2ccccc2)C(=O)N2CCC[C@H]2C(=O)NC/C=C/CC/C=C/C3[C@@H]2O[C@]12C (stereo partly drawn)', 'z-score', -0.512),
  ('CCCCN1CC=CC23O[C@@H]4/C=C\CCC(C)OC(=O)C4[C@H]2C(=O)N(CCO)[C@@H]3C1=O (stereo partly drawn)', 'z-score', -0.406),
  ('COc1cc(CO)cc(I)c1O[C@H]1C=C(C(=O)NCCO)C[C@@H](N(CCN2CCOCC2)C(=O)C2CCCO2)[C@@H]1O (stereo partly drawn)', 'z-score', 0.315),
  ('CC(CO)N1C(=O)[C@@H]2[C@H]3C(=O)OCC=C[C@H]3OC23C=CCN(c2ccc4ccccc4c2)C(=O)[C@@H]13 (stereo partly drawn)', 'z-score', -0.432),
  ('CC(C)c1ccc(NN2C(C(O)C(C)c3ccccc3)C=CC3C(=O)N(c4ccccc4)C(=O)C32)cc1 (stereo not drawn)', 'z-score', -1.03);

// query What measured z-score goes with C=C(COC)/C(=C/C[C@@H](OC(=O)c1ccncc1)c1ccccc1OCCO)c1cnc2ccccc2c1 ?
// result -0.316

// query What measured z-score goes with COCCOC(=O)N1C(=O)[C@@]2(c3cc(C#CCNC(N)=O)ccc31)[C@H](c1ccc(O)cc1)N1[C@H](c3ccccc3)[C@H](c3ccccc3)OC(=O)[C@H]1[C@@H]2C(=O)N1CCc2cc(OC)c(OC)cc2C1 ?
// result -0.281

// query What measured z-score goes with [N-]=[N+]=NCc1ccccc1C[C@@]1(C(N)=O)N=C(c2ccc(OCCCO)cc2)O[C@@H]1c1ccccc1N=[N+]=[N-] ?
// result -0.705

====

test system: Sonic hedgehog protein (Shh); assay: small-molecule binders of Shh protein, primary screen, biochemical, small-molecule microarray, 635/667 nm fluorescence (AID 1151); settings: small-molecule microarray binding, 635 nm fluorescence; higher = more signal;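 also: Shh protein binding to compounds spotted on small-molecule microarray slides; score combines spot fluorescence intensity with signal-to-noise across triplicate slides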
Please note: yes (1) applies when composite z-score is 0.1 or greater, and no (0) applies otherwise.

INSERT INTO measurements (record_smiles, discrete_label) VALUES
  ('COC(=O)C(CC#Cc1ccc2c(c1)[C@]1(C(=O)N2)[C@H](c2ccc(OCCO)cc2)N2[C@H](c3ccccc3)[C@H](c3ccccc3)OC(=O)[C@H]2[C@@H]1C(N)=O)C(=O)OC', 'no (0)'),
  ('COC(=O)C(CC#Cc1ccc2c(c1)[C@]1(C(=O)N2)[C@H](C(=O)NC[C@H](O)c2ccccc2)[C@H]2C(=O)O[C@H](c3ccccc3)[C@H](c3ccccc3)N2[C@@H]1c1ccc(O)cc1)C(=O)OC', 'yes (1)'),
  ('CC(C)[Si](C#Cc1ccccc1)(O[C@H](c1ccccc1)c1cn(Cc2ccccc2)nn1)C(C)C', 'yes (1)'),
  ('C=CCNC(=O)[C@H]1[C@@H]2C(=O)O[C@@H](c3ccccc3)[C@@H](c3ccccc3)N2[C@@H](c2ccc(OCCO)cc2)[C@]12C(=O)Nc1ccc(C#Cc3ccc(OC)cc3)cc12', 'yes (1)'),
  ('O=C1O[C@H](c2ccccc2)[C@H](c2ccccc2)N2[C@H]1[C@@H](C(=O)N1CCN(c3ncccn3)CC1)[C@]1(C(=O)Nc3ccc(C#CC4(O)CCCCCC4)cc31)[C@H]2c1ccc(O)cc1', 'yes (1)');

// query composite z-score >= 0.1 for CCOC(=O)C[C@H]1[C@H](OC(=O)c2ccc(-c3ccccc3)cc2)[C@@H](NC(=O)C2CCCCC2)c2cc(OCCCO)ccc2N1C(=O)Cc1ccc(OC)cc1 ?
// result yes (1)

====

experiment: small-molecule binders of probe aInhba, primary screen, biochemical, small-molecule microarray, 635/667 nm fluorescence (AID 1148); conditions: higher = more signal;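 also: score merges 667nm spot fluorescence with signal-to-noise for antibody binding to printed compounds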
Please note: 1.0 applies when composite z-score is 0.7 or greater, and 0.0 applies otherwise.

INSERT INTO results (compound, discrete_label) VALUES
  ('C=CC[C@H](O)c1ccc(O)c(F)c1', 0.0);

// query composite z-score >= 0.7 for CCCCC(=C=CC[C@H](O)c1ccccc1OCCO)CCO ?
// result 0.0

// query composite z-score >= 0.7 for O=C1c2ccccc2[C@](Cc2ccccc2I)(C(=O)NCCN2CCOCC2)[C@H](c2ccc(CO)cc2)N1Cc1ccccc1C(F)(F)F ?
// result 0.0

// query composite z-score >= 0.7 for C=CCNC(=O)[C@@H]1[C@H]2C(=O)O[C@H](c3ccccc3)[C@H](c3ccccc3)N2[C@H](c2ccc(O)cc2)[C@@]12C(=O)Nc1ccc(C#CC3=CCCCC3)cc12 ?
// result 1.0

// query composite z-score >= 0.7 for CC(C)c1ccc(NN2C(C(O)C(C)c3ccccc3)C=CC3C(=O)N(c4ccccc4)C(=O)C32)cc1 (stereo unspecified) ?
// result 1.0

====

target: Alpha-bungarotoxin (Bungarus multicinctus) (UniProt P60615); assay: alpha-bungarotoxin binders on microarray, profiling panel, artefact control for SMM control protein annotation, biochemical, small-molecule microarray, Alexa647 label, 635/667 nm fluorescence (AID 1117); conditions: alpha-BTX-A647 binding fluorescence, higher = more signal
Sequence (P60615 whole entry, looked up): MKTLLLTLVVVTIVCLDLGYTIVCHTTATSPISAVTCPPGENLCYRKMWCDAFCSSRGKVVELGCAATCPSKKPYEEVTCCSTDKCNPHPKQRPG
Please note: met applies when composite z-score is 0.8 or greater, and not met applies otherwise.

Below are worked cases with known answers.
INSERT INTO assay_data (compound, discrete_label) VALUES
  ('CN(C)CCCC[C@@H]1NC(=O)[C@H]2C[C@@H](C(=O)NCCCCCCNC(=O)CS)[C@@H](c3cccc(OCCO)c3)N2C1=O', 'not met'),
  ('NCCCCCCNC(=O)[C@@H]1C[C@@H]2C(=O)NCC(=O)N2[C@@H]1c1cccc(OCCO)c1', 'met'),
  ('COCCOC(=O)N1C(=O)[C@@]2(c3cc(C#CCC(C(=O)OC)C(=O)OC)ccc31)[C@H](C(N)=O)[C@H]1C(=O)O[C@H](c3ccccc3)[C@H](c3ccccc3)N1[C@@H]2c1ccccc1OCCO', 'met');

Now look at this one.
// query composite z-score >= 0.8 for COC(=O)[C@@]1(Cc2ccccc2)[C@H]2c3cc(C(=O)N(C)C)n(Cc4ccc(Cl)c(C(F)(F)F)c4)c3C[C@H]2CN1C(=O)c1ccccc1 ?
// result met

====

# maps each entry to its z-score
assay: MM1S myeloma cell viability, profiling panel, resazurin fluorescence, basal, 24 h, PK04 Diversity Set (AID 1174); details: higher = more signal, called active from +8 up or from −8 down;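 also: MM1S multiple myeloma cell line; test concentration not given here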
The source made the active and inactive calls.

INSERT INTO measurements (compound, observed_measurement) VALUES
  ('COc1cc(CO)cc(I)c1O[C@H]1C=C(C(=O)NCCO)C[C@@H](N(CCN2CCOCC2)C(=O)C2CCCO2)[C@@H]1O (stereo partly drawn)', '-0.202 (inactive)'),
  ('CC1(C)OB(/C=C\CC(OC(=O)c2ccncc2)c2ccccc2)OC1(C)C (stereo not drawn)', '0.217 (inactive)'),
  ('COC(=O)C1=CC(c2ccc(CO)cc2)=CC(C2CC2)N(Cc2cc3c(cc2Br)OCO3)C=C1C(=O)OC (stereo not drawn)', '-1.42 (inactive)'),
  ('COCCCNC(=O)[C@]1(Cc2ccccc2N=[N+]=[N-])N=C(c2ccc(OCCCO)cc2)O[C@@H]1c1ccccc1', '-1.25 (inactive)');

// query What measured z-score goes with C=C(C)C1CN([C@H](CO)c2ccccc2)C(=O)/C1=C\c1ccccc1 (stereo partly drawn) ?
// result 0.44 (inactive)

// query What measured z-score goes with C=CCOC(=O)[C@H]1[C@@H]2C(=O)O[C@@H](c3ccccc3)[C@@H](c3ccccc3)N2[C@@H](c2ccc(OCCOC(=O)[C@@H]3C[C@@H]4C(=O)N[C@@H](Cc5ccccc5)C(=O)N4[C@@H]3c3ccc(O)cc3)cc2)[C@]12C(=O)Nc1ccc(I)cc12 ?
// result -1.06 (inactive)

// query What measured z-score goes with Cc1ccc(S[C@]2(C(=O)NC3CC3)CC(=O)N(C3Cc4ccccc4C3)[C@@H]2c2ccc(CO)cc2I)cc1 ?
// result -2.54 (inactive)

// query What measured z-score goes with COc1cc(Cc2cc3c(c(-c4ccccc4)n2)[Si](C(C)C)(C(C)C)OC3)cc(OC)c1OC ?
// result 1.03 (inactive)

====

assay: splicing luciferase reporter signal modulators, primary screen, spliceosome inhibition project, cell-based, HEK293, splice +/- reporter (AID 1101); conditions: luminescence, 24 h, higher = more signal, called active from +8 up or from −8 down;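 also: HEK293 cells carrying a splicing-competent luciferase reporter gene; test concentration not given here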
measured-endpoint: z-score
Just the number, please.

INSERT INTO results (record_smiles, observed_measurement) VALUES
  ('O=C1c2ccccc2[C@](Cc2ccccc2I)(C(=O)NCCN2CCOCC2)[C@H](c2ccc(CO)cc2)N1Cc1ccccc1C(F)(F)F', -0.0322),
  ('C=C(C(=O)CC[C@@H](OC(=O)c1cccnc1)c1cccc(OCCO)c1)C(C)C', 3.07);

// query What measured z-score goes with C=CC[C@]12N=C(c3ccc(OCCCO)cc3)O[C@H]1c1ccccc1N(CCC)C2=O ?
// result -0.391

// query What measured z-score goes with COC(=O)[C@@]1(Cc2ccccc2)[C@H]2c3cc(C(=O)N(C)C)n(Cc4nc5ccccc5[nH]4)c3C[C@H]2CN1C(=O)c1ccccc1 ?
// result -2.1
